Some sequences, each annotated with its measured apparent KD of MS2 coat protein.
Test system: MS2 coat protein
Test: apparent KD of MS2 coat protein; designed switch direction (-1 OFF switch, 1 ON switch): -1; higher = weaker reporter binding
Settings: input ligand: FMN 200 uM
quantity_name: apparent KD of MS2 coat protein

1) GCGGACAAGAUCGCGAGAUCAGAGACAUGAGGAUCACCCAUGUAGGAUAUCGAUUCGAAACGAAUCGAGAAGGGCAUAGUCCGC [JL denovo 5] (Eterna round: R96, puzzle: Exclusion NG 3): 17.3 nM
2) UUUAAUGGAAUUAAGAUCACAUGAGGAUCACCCAUGUAUAUAUAGGAUAUCAGCUCGUGUAGAGCUGAGAAGGAUAUAUACAUA [ExNG3/6-B3] (Eterna round: R96, puzzle: Exclusion NG 3): 208 nM
3) GAAAAUGUGGAGGAUAUCGACUUCGAAAGAAGUCGAGAAGGCCACACAUGAGGAUCACCCAUGUGAUGCCUAUA [Omei Ex6 H8] (Eterna round: R97, puzzle: Exclusion 6): 774 nM
4) GGAUAAAGUCGAGGAUAUACGCACCACUAACGAGUAGAAGGCGAACAUGAGGAUCACCCAUGUGAGUUCUCAAUAAGAAACACG [Prohibition 69 - Jieux - Exclusion NG 1] (Eterna round: R96, puzzle: Exclusion NG 1): 54.1 nM
5) AAUAACAGAGGAUAUACUGUUUUAUGUGUUUGUUAUUUUGAACAUGAGGAUCACCCAUGUAGAAGGCUGAAUAA [JMF 23] (Eterna round: R96, puzzle: Exclusion 2): 23.9 nM
6) AGAUGUCCGCAGGAUAUGCGGGCGAGGCCCUAAGCAGAAGGGCGGACAUGAGGAUCACCCAUGUGAGUAAAAGA [EX6 A.23] (Eterna round: R97, puzzle: Exclusion 6): 94.2 nM
7) CGAUUGUGAGGAUAUACUUGUGGUAAUGCACCUGUAUGUAAACAUGAGGAUCACCCAUGUAGAAGGUACGACAG [Eternabot (L2) Solution 11] (Eterna round: R97, puzzle: Exclusion 2): 27.6 nM
8) CUCGUGCAGCAAAGCUGUACGAGUACAUGAGGAUCACCCAUGUAGGAUAUGGUACGCAAAGCGUGCUAGAAGGACGUGUGUAAG [Mat - Exclusion NG 3 - Mod of JL - D92] (Eterna round: R96, puzzle: Exclusion NG 3): 118 nM
9) AAGAAGCGAGGAUAUACAGGCGGCGACAUGAGGAUCACCCAUGUGGUGGCCCACGCCGUGGUAGAAGGCGUUAAAG [Ordiceinri] (Eterna round: R97, puzzle: Exclusion 5): 228 nM
